The origin of these recorded values is paper PMC4168902.

# System: poly A–poly U (poly rA–poly rU) (RNA, polymer) A/U
# measurement.description: UV–vis titration, Scatchard fit
# conditions: Na+ (sodium cacodylate, I = 0.05 M); sodium cacodylate pH 7.0, 25 °C; polynucleotide as nucleobases/phosphates; per base
The entries below are paired with their reported log Ks.
Kindly provide the number alone.

Here are 3 compounds together with their reported answers.
{"columns": ["compound.smiles", "log Ks"],
 "data": [
  ["Nc1ncnc2c1ncn2CCCCCOc1ccccc1C(=O)C1=CNc2ccccc2N=CC(C(=O)c2ccccc2OCCCCC[n+]2ccccc2)=CNc2ccccc2N=C1", 6.6],
  ["Nc1ncnc2c1ncn2CCCOc1ccccc1C(=O)C1=CNc2ccccc2N=CC(C(=O)c2ccccc2OCCC[n+]2ccccc2)=CNc2ccccc2N=C1", 6.0],
  ["C[N+](C)(C)CCCOc1ccccc1C(=O)C1=CNc2ccccc2N=CC(C(=O)c2ccccc2OCCCn2cnc3c(N)ncnc32)=CNc2ccccc2N=C1", 5.8]
]}

Okay, now this compound:
What value of log Ks has been recorded for this entry: Nc1ncnc2c1ncn2CCCCCCOc1ccccc1C(=O)C1=CNc2ccccc2N=CC(C(=O)c2ccccc2OCCCCCC[n+]2ccccc2)=CNc2ccccc2N=C1 5.7

---

# Tested on: poly dAdT–poly dAdT (DNA, polymer) AT
# measurement.description: UV thermal melting at 260 nm
# conditions: Na+ (sodium cacodylate, I = 0.05 M); sodium cacodylate pH 7.0; r = [compound]/[polynucleotide] = 0.3; per base
assay.endpoint: ΔTm (°C)
Respond with the bare value in °C.

{"columns": ["compound.smiles", "ΔTm, °C"],
 "data": [
  ["Nc1ncnc2c1ncn2CCCCCCOc1ccccc1C(=O)C1=CNc2ccccc2N=CC(C(=O)c2ccccc2OCCCCCC[n+]2ccccc2)=CNc2ccccc2N=C1", 0]
]}

Need ΔTm, item CCCCCCOc1ccccc1C(=O)C1=CNc2ccccc2N=CC(C(=O)c2ccccc2OCCC[n+]2ccccc2)=CNc2ccccc2N=C1 0

---

log Ks reference
# Tested on: poly dG–poly dC (DNA, polymer) G/C
# measurement.description: UV–vis titration, Scatchard fit
# conditions: Na+ (sodium cacodylate, I = 0.05 M); sodium cacodylate pH 7.0, 25 °C; polynucleotide as nucleobases/phosphates; per base

Below: 3 compounds and their reported log Ks.
{"columns": ["compound.smiles", "study.system", "log Ks"],
 "data": [
  ["Nc1ncnc2c1ncn2CCCCCCOc1ccccc1C(=O)C1=CNc2ccccc2N=CC(C(=O)c2ccccc2OCCCCCC[n+]2ccccc2)=CNc2ccccc2N=C1", "poly dG–poly dC (DNA, polymer) G/C", 5.6],
  ["Nc1ncnc2c1ncn2CCCCCOc1ccccc1C(=O)C1=CNc2ccccc2N=CC(C(=O)c2ccccc2OCCCCC[n+]2ccccc2)=CNc2ccccc2N=C1", "poly dG–poly dC (DNA, polymer) G/C", 5.8],
  ["C[N+](C)(C)CCCOc1ccccc1C(=O)C1=CNc2ccccc2N=CC(C(=O)c2ccccc2OCCCn2cnc3c(N)ncnc32)=CNc2ccccc2N=C1", "poly dG–poly dC (DNA, polymer) G/C", 5.7]
]}

Returns the measured log Ks for the input compound. Input: Nc1ncnc2c1ncn2CCCOc1ccccc1C(=O)C1=CNc2ccccc2N=CC(C(=O)c2ccccc2OCCC[n+]2ccccc2)=CNc2ccccc2N=C1 5.5

---

# System: poly dA–poly dT (DNA, polymer) A/T
# measurement.description: UV–vis titration, Scatchard fit
# conditions: Na+ (sodium cacodylate, I = 0.05 M); sodium cacodylate pH 7.0, 25 °C; polynucleotide as nucleobases/phosphates; per base
# maps each entry to its log Ks
Answer field: number only, no words.

Some solved entries appear below for comparison.
{"columns": ["compound.smiles", "recorded.value"],
 "data": [
  ["C[N+](C)(C)CCCOc1ccccc1C(=O)C1=CNc2ccccc2N=CC(C(=O)c2ccccc2OCCCn2cnc3c(N)ncnc32)=CNc2ccccc2N=C1", 5.9],
  ["Nc1ncnc2c1ncn2CCCCCCOc1ccccc1C(=O)C1=CNc2ccccc2N=CC(C(=O)c2ccccc2OCCCCCC[n+]2ccccc2)=CNc2ccccc2N=C1", 5.0],
  ["Nc1ncnc2c1ncn2CCCCCOc1ccccc1C(=O)C1=CNc2ccccc2N=CC(C(=O)c2ccccc2OCCCCC[n+]2ccccc2)=CNc2ccccc2N=C1", 5.4]
]}

Fill in the recorded log Ks for this molecule, with poly dA–poly dT (DNA, polymer) A/T as test system: Nc1ncnc2c1ncn2CCCOc1ccccc1C(=O)C1=CNc2ccccc2N=CC(C(=O)c2ccccc2OCCC[n+]2ccccc2)=CNc2ccccc2N=C1 6.2

---

# ΔTm per entry
# System: poly dA–poly dT (DNA, polymer) A/T
# measurement.description: UV thermal melting at 260 nm
# conditions: Na+ (sodium cacodylate, I = 0.05 M); sodium cacodylate pH 7.0; r = [compound]/[polynucleotide] = 0.3; per base
Respond numerically; units are °C and should not be typed.

Some molecules with known ΔTm results, for comparison:
{"columns": ["compound.smiles", "ΔTm / °C"],
 "data": [
  ["Nc1ncnc2c1ncn2CCCCCCOc1ccccc1C(=O)C1=CNc2ccccc2N=CC(C(=O)c2ccccc2OCCCCCC[n+]2ccccc2)=CNc2ccccc2N=C1", 0],
  ["C[N+](C)(C)CCCOc1ccccc1C(=O)C1=CNc2ccccc2N=CC(C(=O)c2ccccc2OCCCn2cnc3c(N)ncnc32)=CNc2ccccc2N=C1", 0],
  ["CCCCCCOc1ccccc1C(=O)C1=CNc2ccccc2N=CC(C(=O)c2ccccc2OCCC[n+]2ccccc2)=CNc2ccccc2N=C1", 0]
]}

Any idea what ΔTm was measured for Nc1ncnc2c1ncn2CCCOc1ccccc1C(=O)C1=CNc2ccccc2N=CC(C(=O)c2ccccc2OCCC[n+]2ccccc2)=CNc2ccccc2N=C1 ? 0.7

---

# Tested on: poly A–poly U (poly rA–poly rU) (RNA, polymer) A/U
# measurement.description: UV thermal melting at 260 nm
# conditions: Na+ (sodium cacodylate, I = 0.05 M); sodium cacodylate pH 7.0; r = [compound]/[polynucleotide] = 0.3; per base
assay.endpoint: ΔTm (°C)
Dear colleague, please return just the value in °C, with no unit written.

Reference set (3 entries):
{"columns": ["compound.smiles", "measure.unit", "ΔTm"],
 "data": [
  ["Nc1ncnc2c1ncn2CCCCCCOc1ccccc1C(=O)C1=CNc2ccccc2N=CC(C(=O)c2ccccc2OCCCCCC[n+]2ccccc2)=CNc2ccccc2N=C1", "°C", 0],
  ["C[N+](C)(C)CCCOc1ccccc1C(=O)C1=CNc2ccccc2N=CC(C(=O)c2ccccc2OCCCn2cnc3c(N)ncnc32)=CNc2ccccc2N=C1", "°C", 0],
  ["CCCCCCOc1ccccc1C(=O)C1=CNc2ccccc2N=CC(C(=O)c2ccccc2OCCC[n+]2ccccc2)=CNc2ccccc2N=C1", "°C", 0]
]}

The record that follows has no ΔTm shown yet.
Name the recorded ΔTm for Nc1ncnc2c1ncn2CCCOc1ccccc1C(=O)C1=CNc2ccccc2N=CC(C(=O)c2ccccc2OCCC[n+]2ccccc2)=CNc2ccccc2N=C1 . 0.5
